Target: THRβ (Homo sapiens, UniProt P10828)
Construct: RXRα and THRβ-LBD Eu-anti-GST antibody with GST tag
Sequence (P10828 217-461 limits assumed, other chains not shown): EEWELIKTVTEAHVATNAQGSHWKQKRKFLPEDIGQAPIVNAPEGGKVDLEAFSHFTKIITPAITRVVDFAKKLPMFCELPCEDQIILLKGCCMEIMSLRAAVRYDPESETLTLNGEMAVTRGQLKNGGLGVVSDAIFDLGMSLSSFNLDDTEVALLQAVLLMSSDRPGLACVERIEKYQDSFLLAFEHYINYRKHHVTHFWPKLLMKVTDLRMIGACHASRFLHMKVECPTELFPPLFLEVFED
Sequence (P19793 whole entry partner, other chains not shown, the tested form may be a part): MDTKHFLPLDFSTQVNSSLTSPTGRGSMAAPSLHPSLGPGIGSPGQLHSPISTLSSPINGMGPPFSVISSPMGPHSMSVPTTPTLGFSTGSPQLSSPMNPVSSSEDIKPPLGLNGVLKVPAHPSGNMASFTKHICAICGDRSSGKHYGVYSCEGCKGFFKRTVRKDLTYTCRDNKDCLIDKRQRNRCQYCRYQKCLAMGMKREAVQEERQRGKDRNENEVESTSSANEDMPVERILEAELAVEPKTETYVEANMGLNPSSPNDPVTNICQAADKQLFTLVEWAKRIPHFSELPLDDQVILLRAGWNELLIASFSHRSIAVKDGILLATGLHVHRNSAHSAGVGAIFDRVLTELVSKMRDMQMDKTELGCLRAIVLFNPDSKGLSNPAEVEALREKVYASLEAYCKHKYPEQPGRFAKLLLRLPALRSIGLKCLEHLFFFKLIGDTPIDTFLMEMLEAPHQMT
Assay: THRβ binding assay (time-resolved FRET coactivator peptide recruitment)
Format: biochemical
Settings: THRβ-LBD/RXRα, SRC2-2 coactivator peptide recruitment, 4 hours at room temperature
Listing of recorded EC50 by entry.

molecule	EC50
CC(C)n1cc(Oc2c(Cl)cc(-n3nc(C#N)c(=O)[nH]c3=O)cc2Cl)ccc1=O	11 nM
O=c1[nH]c(=O)n(-c2cc(Cl)c(Oc3ccc(=O)n(-c4cccs4)c3)c(Cl)c2)nc1CF	8 nM
CC(C)n1cc(Oc2c(Cl)cc(-n3nc(CF)c(=O)[nH]c3=O)cc2Cl)ccc1=O	3 nM
N#Cc1nn(-c2cc(Cl)c(Oc3ccc(=O)n(-c4cccs4)c3)c(Cl)c2)c(=O)[nH]c1=O	119 nM
O=c1[nH]c(=O)n(-c2cc(Cl)c(Oc3ccc(=O)n(-c4cccc(F)c4)c3)c(Cl)c2)nc1CF	3 nM
N#Cc1nn(-c2cc(Cl)c(Oc3ccc(=O)n(-c4cccc(C(F)(F)F)c4)c3)c(Cl)c2)c(=O)[nH]c1=O	26 nM
N#Cc1nn(-c2cc(Cl)c(Oc3ccc(=O)n(C4CCCC4)c3)c(Cl)c2)c(=O)[nH]c1=O	18 nM
N#Cc1nn(-c2cc(Cl)c(Oc3ccc(=O)n(CC4CCCC4)c3)c(Cl)c2)c(=O)[nH]c1=O	20 nM
Cc1nn(-c2cc(Cl)c(Oc3ccc(=O)n(-c4ccccc4)c3)c(Cl)c2)c(=O)[nH]c1=O	18 nM
[2H]C1(n2cc(Oc3c(Cl)cc(-n4nc(C#N)c(=O)[nH]c4=O)cc3Cl)ccc2=O)CCCC1	30 nM
Cc1cccc(-n2cc(Oc3c(Cl)cc(-n4nc(C#N)c(=O)[nH]c4=O)cc3Cl)ccc2=O)c1	60 nM
N#Cc1nn(-c2cc(Cl)c(Oc3ccc(=O)n(C4CCCCC4)c3)c(Cl)c2)c(=O)[nH]c1=O	12 nM
Cc1ccccc1-n1cc(Oc2c(Cl)cc(-n3nc(C#N)c(=O)[nH]c3=O)cc2Cl)ccc1=O	136 nM
Cc1cc(Oc2c(Cl)cc(-n3nc(C#N)c(=O)[nH]c3=O)cc2Cl)cn(C2CC2)c1=O	1430 nM
